From: the supplement of paper PMC6089552

- Test system: A673/TR/shEF
- Assay protocol: cell viability (LOESS-normalised, relative to median of negative controls) (log2 ratio); higher = more viable cells (less compound effect), active = hit call of the paper (over 3 MAD below the median)
- Experimental setup: 2.5 µM; library screen: screen1; EWS-FLI1 expression: high (no doxycycline); treatment time: 72 h
Screen size: about 3,200 compounds; about 300 (9.4%) showed activity. This excerpt belongs to a sample that is enriched for actives.
# reported cell viability (log2); entries follow
Provide a numeric answer; units are not to be included.

For orientation, consider the following solved cases.
COc1cc2c(cc1OC)C(=O)c1ccc(OC)c(OC)c1OCC(=O)C2
0.104
COc1cc2ccc(=O)oc2c2ccoc12
0.248
CC(C)=CCCC1(C)C=Cc2c(O)c3c(c(CC=C(C)C)c2O1)OC12C(CC4CC1C(C)(C)OC2(C/C=C(/C)C(=O)O)C4O)C3=O (configuration not stated)
0.127
CNNC
0.115
C[C@H]1CC[C@]2(NC1)O[C@H]1C[C@H]3[C@@H]4CC[C@H]5C[C@@H](O[C@@H]6O[C@H](CO)[C@H](O[C@@H]7O[C@H](CO)[C@@H](O)[C@H](O[C@@H]8OC[C@@H](O)[C@H](O)[C@H]8O)[C@H]7O[C@@H]7O[C@H](CO)[C@@H](O)[C@H](O)[C@H]7O)[C@H](O)[C@H]6O)CC[C@]5(C)[C@H]4CC[C@]3(C)[C@H]1[C@@H]2C
-1.17
CC(=O)Oc1c2c(c(CC=C(C)C)c3c1C(=O)C1=C[C@@H]4CC5C(C)(C)OC(C/C=C(\C)C(=O)O)(C4=O)[C@@]15O3)OC(C)(CCC=C(C)C)C=C2 (some centres not stated)
-0.0173
C[N+]1(C)C2CC(OC(=O)C(CO)c3ccccc3)CC1C1OC12 (configuration not stated)
0.182
CN[C@@H](Cc1c[nH]c2ccccc12)C(=O)O
0.156

Input: Given "COc1cc(OC)c(OC)cc1C=O" , respond with its cell viability (log2).
Output: 0.037

Input: Given "C[C@@H](N)[C@@H](O)c1ccccc1" , respond with its cell viability (log2).
Output: 0.0838

Input: Given "CC[C@@]1(O)C(=O)OCc2c1cc1n(c2=O)Cc2cc3ccccc3nc2-1" , respond with its cell viability (log2).
Output: -1.57

Input: Given "ClC1=C(Cl)[C@]2(Cl)[C@H]3[C@H]([C@@H]4C=C[C@H]3C4)[C@@]1(Cl)C2(Cl)Cl" , respond with its cell viability (log2).
Output: 0.0733

Input: Given "C[C@H]1CC[C@]2(NC1)O[C@H]1C[C@H]3[C@@H]4CC[C@H]5C[C@@H](O)CC[C@]5(C)[C@H]4CC[C@]3(C)[C@H]1[C@@H]2C" , respond with its cell viability (log2).
Output: 0.161

Input: Given C=C1[C@H]2CCC3[C@@](CC[C@@H]4[C@H](C(=O)O)C[C@@H](O[C@H]5O[C@H](CO)[C@@H](OS(=O)(=O)O)[C@H](OS(=O)(=O)O)[C@H]5OC(=O)CC(C)C)C[C@@]34C)(C2)[C@H]1O (some centres not stated) , respond with its cell viability (log2).
Output: 0.0683

Input: Given "CCN1C[C@]2(C)CC[C@H](OC)[C@@]34C1[C@]1(OCO[C@@]15C[C@H](OC)[C@H]1C[C@]3(O)[C@@H]5[C@H]1OC)[C@@H](OC(C)=O)[C@H]24" , respond with its cell viability (log2).
Output: 0.12

Input: Given "CC1(C)C(=O)C=C[C@]2(C)C1=C(O)C(=O)[C@@]1(C)[C@H]2CC[C@]2(C)[C@@H](c3ccoc3)C[C@@H]3O[C@]312" , respond with its cell viability (log2).
Output: -0.0522

Input: Given "NC(=O)c1cc([N+](=O)[O-])cc([N+](=O)[O-])c1" , respond with its cell viability (log2).
Output: 0.16

Input: Given "CN(C)[C@@H]1C(=O)C(C(N)=O)=C(O)[C@@]2(O)C(=O)C3=C(O)c4c(O)cccc4[C@@](C)(O)[C@H]3[C@H](O)[C@@H]12" , respond with its cell viability (log2).
Output: 0.158
